Exercise: for every item that follows, state its recorded EC50.
- System: Calu-3 cells
- assay: cells
- assay-context: Homo sapiens, Calu-3, read-out: cell count EC50, Calu-3, geomean; ^↑ = increasing dose-response curve
Structures can show the parent of a compound that is named as a salt.
API: value field is a number in nM; no unit string.

The value of EC50 measured for the molecule CCC(CC)COC(=O)[C@H](C)N[P@](=O)(OC[C@H]1O[C@@](C#N)(c2ccc3c(N)ncnn23)[C@H](O)[C@@H]1O)Oc1ccccc1 [Remdesivir] turned out to be 537

Reported EC50 ( N=C(N)c1ccc2cc(OC(=O)c3ccc(N=C(N)N)cc3)ccc2c1 [Nafamostat mesylate] ) = 40
